This section presents compounds with their documented log reduction at 3 µg/mL values.
# Test system: RSV, Long strain
# experimentalDetails: virus titer Reduction (VTR) assay, progeny virus TCID50 in HEp-2 cells
# Assay type: cell-based, respiratory syncytial virus (RSV)
# assayConditions: human respiratory syncytial virus, 48 h, 3 ug/ml compound, read-out: TCID-50 Reduction @ 3 ug/ml
Response field accepts a number only; no unit should be typed.

[
  {
    "compound": "COc1ccc(C(=O)Nc2ccc3c(c2)OCCO3)c(OC)c1 [AB00296320]",
    "log reduction at 3 µg/mL": 1.55
  }
]

Input: Need log reduction at 3 µg/mL, item O=C(Cc1ccc(Br)cc1)Nc1ccccc1C(=O)O [AB00369287]
Output: 1

Input: Also need O=C(c1cc(Cl)ccc1Cl)N1CCCN(C(=O)c2cc(Cl)ccc2Cl)CC1 [AB00311948] , thanks.
Output: 3.13

Input: What do you have for Oc1ccc(Nc2nc(-c3ccc(O)cc3)cs2)cc1 [AB00355020] ?
Output: 1

Input: Let us now turn to Cc1sc(NC(=O)c2c(F)cccc2F)nc1-c1ccccc1 [AB00309154]
Output: 1.54

Input: Could you do the same for CC1=Nc2ccc(C)c3nc(C)cc(c23)N1c1ccc(C)cc1 [AB00280244] , please?
Output: 1.55

Input: Now try Cc1ccc(S(=O)(=O)Nc2ccc(NC(=O)c3c(F)c(F)c(F)c(F)c3F)cc2)cc1 [AB00314111] .
Output: 1

Input: Quick one: Cc1ccn2cc(-c3cccc(NS(=O)(=O)c4ccccc4)c3)nc2c1 [AB00356285]
Output: 1.14

Input: Follow-up item: CCOC(=O)Cc1ccc(NC(=O)c2cc(SC)ccc2Cl)cc1 [AB00359299]
Output: 1

----------
# Tested on: RSV, Long strain
# experimentalDetails: virus titer Reduction (VTR) assay, progeny virus TCID50 in HEp-2 cells
# Format: cell-based, respiratory syncytial virus (RSV)
# assayConditions: human respiratory syncytial virus, 48 h, 25 ug/ml compound, read-out: TCID-50 Reduction 25 @ ug/ml
log reduction at 25 µg/mL below 4 gives False; log reduction at 25 µg/mL at or above it gives True.

Examples with answers:
[
  {
    "smilesText": "O=C(NCCSCc1c(F)cccc1Cl)c1cccc([N+](=O)[O-])c1",
    "class": "False"
  },
  {
    "smilesText": "O=C(Nc1cccc(NC(=O)C23CC4CC(CC(C4)C2)C3)c1)c1ccccc1F",
    "class": "True"
  },
  {
    "smilesText": "COC(=O)c1c(-c2ccccc2)csc1NC(=O)c1ccccc1Cl",
    "class": "False"
  },
  {
    "smilesText": "CCOC(=O)Cc1nnc(Nc2ccc(C)cc2)c2ccccc12",
    "class": "False"
  }
]

Input: Check if log reduction at 25 µg/mL >= 4 (inclusive). Item: "CC(C)=CCC1=C(O)C(=O)c2ccccc2C1=O"
Output: True

Input: For "Cc1nn(-c2ccccc2)c(C)c1C(=O)C(=O)Nc1cccc(Cl)c1" then?
Output: True

Input: Consider next the compound "O=C1c2ccccc2C(=O)N1CCCCN(C(=O)c1cccc([N+](=O)[O-])c1)c1ccc(Cl)cc1" in the same way.
Output: False

----------
# System: RSV, Long strain
# experimentalDetails: virus titer Reduction (VTR) assay, progeny virus TCID50 in HEp-2 cells
# Format: cell-based, respiratory syncytial virus (RSV)
# assayConditions: human respiratory syncytial virus, 48 h, 25 ug/ml compound, read-out: TCID-50 Reduction 25 @ ug/ml
# note: exactly 4 is not below, so it is 0.0; use 1.0 for log reduction at 25 µg/mL strictly under it

Input: API: query returns whether the compound falls strictly under 4 in log reduction at 25 µg/mL. Query: O=C(CCSc1ccccc1)Nc1ccccc1C(=O)O [AB00289457]
Output: 0.0

Input: Also COc1c(C)cccc1C(=O)NCCOc1ccc(Cl)cc1 [AB00368252] ?
Output: 0.0

Input: Same question, O=C(Cc1c(F)cccc1Cl)Nc1nc2c(s1)CCCC2 [AB00361531] this time
Output: 1.0

Input: Similarly, Cc1ccc(-c2csc(N)c2C(N)=O)cc1C [AB00310739] ?
Output: 1.0

----------
# experimentalDetails: cytotoxicity assay (percent viability of HEp-2 cells, Cell Titer-Glo)
# assayConditions: human, HEp-2 cells
endpoint: CC50 at 6 days

[
  {
    "compound": "Cc1cc(SCCC#N)nc2ccccc12 [AB00371866]",
    "CC50 at 6 days": "> 25 µg/mL"
  },
  {
    "compound": "O=C(Nc1ccc2oc(-c3ccccc3Br)nc2c1)c1ccco1 [AB00294890]",
    "CC50 at 6 days": "> 25 µg/mL"
  },
  {
    "compound": "O=C1c2ccccc2C(=O)N1CCCCN(C(=O)c1ccccc1[N+](=O)[O-])c1ccc(Cl)cc1 [AB00301378]",
    "CC50 at 6 days": "> 25 µg/mL"
  },
  {
    "compound": "COCCn1c(SCC(=O)NC2CCCc3ccccc32)nnc1-c1cccc(C)c1 (stereo not drawn) [AB00728760]",
    "CC50 at 6 days": "> 50 µM"
  },
  {
    "compound": "CSc1ccccc1C(=O)Nc1ccc(S(=O)(=O)Nc2cccc(Cl)c2Cl)cc1 [AB00370446]",
    "CC50 at 6 days": "> 25 µg/mL"
  }
]

Input: Consider the compound Cc1cccc(C(=O)Nc2cc(C(C)C)c(O)cc2C)c1 [AB00305611] and give its measured CC50 at 6 days.
Output: > 25 µg/mL

Input: Same thing, different compound: Oc1ccc(Nc2nc(-c3ccc(O)cc3)cs2)cc1 [AB00355020]
Output: > 25 µg/mL

Input: Also check O=c1[nH]cnc2sc3c(c12)CCCCC3 [AB00276706]
Output: > 25 µg/mL

Input: How about COc1cccc(Nc2nnc(SCC(=O)/C(C#N)=C(\C)N)s2)c1 [AB00767910] ?
Output: > 50 µM

----------
# Test system: HEp-2 cells
# experimentalDetails: cytotoxicity assay (percent viability of HEp-2 cells, Cell Titer-Glo)
# assayConditions: cell viability of HEp-2 cells (text: IC50); unit not given; top concentration 25 ug/mL (Chembridge), 50 uM (Enamine, SRI Proprietary)
Recorded measurements of CC50, one per entry

Check out these entries, answers already filled in.
[
  {
    "smilesText": "COc1ccc2[nH]c(C(C#N)=Cc3cc4c(cc3Cl)OCO4)nc2c1",
    "measurement": ">25.00"
  },
  {
    "smilesText": "CC(=O)Nc1ccc(Nc2ncnc3sc4c(c23)CCCC4)cc1",
    "measurement": ">25.00"
  }
]

From here, focus on the item given below.
Input: Param item = "COc1ccc(-c2cn3cccnc3n2)cc1F" ; retrieve measured CC50.
Output: >25.00

----------
# System: HEp-2 cells
# experimentalDetails: cytotoxicity assay (percent viability of HEp-2 cells, Cell Titer-Glo)
# assayConditions: cell viability of HEp-2 cells (text: IC50); unit inferred; top concentration 25 ug/mL (Chembridge), 50 uM (Enamine, SRI Proprietary)
Catalogue of CC50 values

Solved cases (5 shown):
[
  {
    "compound": "CC(=O)Nc1ccc(NC(=O)c2ccc3[nH]c4c(c3c2)CC(C)CC4)cc1 (stereo not drawn)",
    "CC50": "> 50 µM"
  },
  {
    "compound": "CC(N)=C(C#N)C(=O)CN1C(=O)NC(Cc2c[nH]c3ccccc23)C1=O (stereo not drawn)",
    "CC50": "> 50 µM"
  },
  {
    "compound": "CC(=O)c1ccc(NC(=O)C(Cc2c[nH]c3ccccc23)NC(=O)c2cccs2)cc1 (stereo not drawn)",
    "CC50": "> 50 µM"
  },
  {
    "compound": "CC1CCc2[nH]c3ccc(C(=O)OCC(=O)C(C)(C)C)cc3c2C1 (stereo not drawn)",
    "CC50": "> 50 µM"
  },
  {
    "compound": "Cc1sc(NC(=O)Cc2ccccc2)c(C(=O)O)c1C",
    "CC50": "> 50 µM"
  }
]

# ---- query compound ----
Input: Could you share what CC50 was measured for "CCOC(=O)c1ccc(-n2c(C)cc(C=C(C#N)c3nc4ccccc4[nH]3)c2C)cc1" , tested on HEp-2 cells?
Output: > 50 µM

----------
# System: RSV, Long strain
# experimentalDetails: virus titer Reduction (VTR) assay, progeny virus TCID50 in HEp-2 cells
# Format: cell-based, respiratory syncytial virus (RSV)
# assayConditions: human respiratory syncytial virus, 48 h, 25 ug/ml compound, read-out: TCID-50 Reduction 25 @ ug/ml
Each entry below carries its reported log reduction at 25 µg/mL.
Lab note: write the figure by itself, no unit.

Look over these answered cases.
[
  {
    "molecule": "CC(=O)Nc1nc(N)nc2ccc(CNc3ccc(C(=O)N[C@H](CCC(=O)O)C(=O)O)cc3)nc12",
    "systemUnderTest": "RSV, Long strain",
    "log reduction at 25 µg/mL": -0.02
  },
  {
    "molecule": "COc1ccc(C(=O)Nc2ccc3c(c2)OCCO3)c(OC)c1",
    "systemUnderTest": "RSV, Long strain",
    "log reduction at 25 µg/mL": 4.66
  },
  {
    "molecule": "c1coc(-c2nn3c(Cn4cnc5ccccc54)nnc3s2)c1",
    "systemUnderTest": "RSV, Long strain",
    "log reduction at 25 µg/mL": 2.61
  },
  {
    "molecule": "Cc1ccc(S(=O)(=O)Nc2ccc(NC(=O)c3c(F)c(F)c(F)c(F)c3F)cc2)cc1",
    "systemUnderTest": "RSV, Long strain",
    "log reduction at 25 µg/mL": 3.05
  },
  {
    "molecule": "O=c1cnn([C@@H]2O[C@H](CO)[C@@H](O)[C@H]2O)c(=O)[nH]1",
    "systemUnderTest": "RSV, Long strain",
    "log reduction at 25 µg/mL": 5.56
  },
  {
    "molecule": "CC1(C)O[C@@H]2[C@H](O1)[C@@H](CO)O[C@H]2n1ncc(=O)[nH]c1=O",
    "systemUnderTest": "RSV, Long strain",
    "log reduction at 25 µg/mL": 5.56
  }
]

Input: Item Cc1cccc(N2C(=O)CC(Cc3ccc(Cl)cc3)C2=O)c1Cl (stereo not shown) with RSV, Long strain - log reduction at 25 µg/mL?
Output: 5.9

Input: Next: COCC(C)n1c(SC(C)C(=O)Nc2cc([N+](=O)[O-])ccc2Cl)nc2ccccc2c1=O (stereo not shown)
Output: 5.56

Input: Same lookup for "CCOC(=O)Cc1ccc(NC(=O)c2cc(SC)ccc2Cl)cc1" , please.
Output: 2.83

Value source: patent US20130085133A1
